Values compiled from ChEMBL document CHEMBL1143114.

- study target: Neuronal acetylcholine receptor; alpha4/beta2 (Rattus norvegicus, UniProt P09483+P12390)
- Sequence (P09483 whole entry): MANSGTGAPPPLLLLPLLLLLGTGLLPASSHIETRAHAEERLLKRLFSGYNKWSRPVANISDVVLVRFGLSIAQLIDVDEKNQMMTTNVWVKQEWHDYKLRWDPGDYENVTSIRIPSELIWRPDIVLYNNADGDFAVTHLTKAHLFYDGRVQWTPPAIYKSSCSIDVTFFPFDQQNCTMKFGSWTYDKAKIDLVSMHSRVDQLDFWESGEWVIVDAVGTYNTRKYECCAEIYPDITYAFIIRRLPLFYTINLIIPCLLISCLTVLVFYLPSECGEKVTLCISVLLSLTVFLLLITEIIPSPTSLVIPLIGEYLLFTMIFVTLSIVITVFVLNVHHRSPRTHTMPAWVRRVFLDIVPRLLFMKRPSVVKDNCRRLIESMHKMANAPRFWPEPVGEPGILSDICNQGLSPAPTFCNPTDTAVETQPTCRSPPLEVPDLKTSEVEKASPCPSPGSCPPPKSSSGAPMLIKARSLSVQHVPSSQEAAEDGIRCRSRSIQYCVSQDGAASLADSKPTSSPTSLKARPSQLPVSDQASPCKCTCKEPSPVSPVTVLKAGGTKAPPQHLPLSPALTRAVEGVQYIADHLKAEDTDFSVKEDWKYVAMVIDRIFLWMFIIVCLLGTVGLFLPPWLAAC
- Sequence (P12390 whole entry): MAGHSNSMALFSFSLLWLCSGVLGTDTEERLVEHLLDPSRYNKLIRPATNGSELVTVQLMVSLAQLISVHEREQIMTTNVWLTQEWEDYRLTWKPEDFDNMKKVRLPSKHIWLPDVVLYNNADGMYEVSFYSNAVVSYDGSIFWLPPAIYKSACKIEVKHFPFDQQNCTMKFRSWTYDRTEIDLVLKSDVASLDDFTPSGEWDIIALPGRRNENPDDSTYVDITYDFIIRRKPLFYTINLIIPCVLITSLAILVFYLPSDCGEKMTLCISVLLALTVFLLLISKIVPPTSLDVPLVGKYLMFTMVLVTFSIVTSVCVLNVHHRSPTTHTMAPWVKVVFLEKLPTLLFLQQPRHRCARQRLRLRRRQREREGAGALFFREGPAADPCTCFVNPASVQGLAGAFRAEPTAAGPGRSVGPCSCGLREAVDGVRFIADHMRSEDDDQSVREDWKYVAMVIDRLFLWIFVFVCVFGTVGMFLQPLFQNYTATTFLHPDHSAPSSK
- assay overview: Displacement of [3H]cystisine from nicotinic alpha-4-beta-2 receptor in rat brain

entry smiles: C=Cc1cncc(OCC2(NC)CC2)c1.Cl
study target: Neuronal acetylcholine receptor; alpha4/beta2 (Rattus norvegicus, UniProt P09483+P12390)
Ki: 70.1 nM

entry smiles: CN(C)C1(COc2ccc(Cl)nc2)CC1
study target: Neuronal acetylcholine receptor; alpha4/beta2 (Rattus norvegicus, UniProt P09483+P12390)
Ki: 304 nM

entry smiles: CNC1(CCOc2cccnc2)CC1.O=C(O)/C=C/C(=O)O
study target: Neuronal acetylcholine receptor; alpha4/beta2 (Rattus norvegicus, UniProt P09483+P12390)
Ki: 109 nM

entry smiles: CCNC1(COc2cccnc2)CC1
study target: Neuronal acetylcholine receptor; alpha4/beta2 (Rattus norvegicus, UniProt P09483+P12390)
Ki: 1010 nM

entry smiles: CN(C)C1(COc2cnc(Cl)c(Br)c2)CC1
study target: Neuronal acetylcholine receptor; alpha4/beta2 (Rattus norvegicus, UniProt P09483+P12390)
Ki: 110 nM

entry smiles: CNC1(COc2ccc(C)nc2)CC1.Cl
study target: Neuronal acetylcholine receptor; alpha4/beta2 (Rattus norvegicus, UniProt P09483+P12390)
Ki: 40 nM

entry smiles: Cc1ccc(OCC2(N(C)C)CC2)cn1
study target: Neuronal acetylcholine receptor; alpha4/beta2 (Rattus norvegicus, UniProt P09483+P12390)
Ki: 1090 nM

entry smiles: CNC1(COc2cncc(Br)c2)CC1.Cl
study target: Neuronal acetylcholine receptor; alpha4/beta2 (Rattus norvegicus, UniProt P09483+P12390)
Ki: 1.07 nM

entry smiles: CN(C)C1(COc2cncc(Br)c2)CC1
study target: Neuronal acetylcholine receptor; alpha4/beta2 (Rattus norvegicus, UniProt P09483+P12390)
Ki: 273 nM

entry smiles: CNC1(CCCOc2cccnc2)CC1.O=C(O)/C=C/C(=O)O
study target: Neuronal acetylcholine receptor; alpha4/beta2 (Rattus norvegicus, UniProt P09483+P12390)
Ki: 2460 nM

entry smiles: CNC1(COc2ccc(Br)nc2)CC1.Cl
study target: Neuronal acetylcholine receptor; alpha4/beta2 (Rattus norvegicus, UniProt P09483+P12390)
Ki: 38.8 nM

entry smiles: CNC1(CCc2cccnc2)CC1.Cl
study target: Neuronal acetylcholine receptor; alpha4/beta2 (Rattus norvegicus, UniProt P09483+P12390)
Ki: 251 nM

entry smiles: CN(C)C1(COc2ccc(Br)nc2)CC1
study target: Neuronal acetylcholine receptor; alpha4/beta2 (Rattus norvegicus, UniProt P09483+P12390)
Ki: 394 nM

entry smiles: CNC1(/C=C\COc2cccnc2)CC1.Cl
study target: Neuronal acetylcholine receptor; alpha4/beta2 (Rattus norvegicus, UniProt P09483+P12390)
Ki: 2280 nM

###

Recorded pKi values for a group of compounds are listed next.
- study target: Neuronal acetylcholine receptor; alpha4/beta2 (Rattus norvegicus, UniProt P09483+P12390)
- assay overview: Displacement of [3H]cystisine from nicotinic alpha-4-beta-2 receptor in rat brain
pKi: −log10 of the molar value.
measurement label: pKi

entry smiles: Cc1ccc(OCC2(N)CC2)cn1
measurement label: pKi
recorded result: 6.58

entry smiles: c1cncc(OCC2(N3CCCC3)CC2)c1
measurement label: pKi
recorded result: 5.79

entry smiles: CN(C)C1(COc2cccnc2)CC1.Cl
measurement label: pKi
recorded result: 7.02

entry smiles: NC1(COc2ccc(Cl)nc2)CC1
measurement label: pKi
recorded result: 7.01

entry smiles: CNC1(COc2cccnc2)CC1.Cl
measurement label: pKi
recorded result: 8.52

entry smiles: CNC1(COc2cnc(Cl)c(Br)c2)CC1.Cl
measurement label: pKi
recorded result: 8.27

entry smiles: Cl.NC1(COc2cccnc2)CC1
measurement label: pKi
recorded result: 7.47

entry smiles: CNC1(/C=C/c2cccnc2)CC1.O=C(O)/C=C/C(=O)O
measurement label: pKi
recorded result: 5.94

entry smiles: C#Cc1cncc(OCC2(NC)CC2)c1.Cl
measurement label: pKi
recorded result: 8.18

entry smiles: CNC1(/C=C/COc2cccnc2)CC1.Cl
measurement label: pKi
recorded result: 5.96

entry smiles: CNC1(COc2ccc(Cl)nc2)CC1.Cl
measurement label: pKi
recorded result: 7.89
